system: Bacillus subtilis DB104 (SP-AmyQ fusion secretion); test: AmyQ secretion efficiency, weighted average sort bin (1 = best secretion, 10 = worst) (bin number (weighted average, 1-10)); higher = lower secretion efficiency
Each entry below lists one item and its recorded AmyQ secretion efficiency value.

sequence_string	assayed_system	AmyQ secretion efficiency
MKKWMITIAMLILAGIALFVFISPLKWHKT	Bacillus subtilis DB104 (SP-AmyQ fusion secretion)	5.74
MKWMCSICCAAVLLAGGTAQAEAV	Bacillus subtilis DB104 (SP-AmyQ fusion secretion)	2.47
MKKQIITATTAVVLGSTLFAGAASGQSI	Bacillus subtilis DB104 (SP-AmyQ fusion secretion)	2.03
MRNLTKTSLLLAGLCTAAQMVFVTHHSAEES	Bacillus subtilis DB104 (SP-AmyQ fusion secretion)	4.26
MKLKSKLLLSCLALSTVFVATTIGNAPTH	Bacillus subtilis DB104 (SP-AmyQ fusion secretion)	7.24
MKRKKLLVSLRVWMVFLMNWVTPDRKTAAAAVY	Bacillus subtilis DB104 (SP-AmyQ fusion secretion)	7.43
MLKKIALTLCPAIVGSLLFFTAPCSAHVS	Bacillus subtilis DB104 (SP-AmyQ fusion secretion)	3.32
MFNRLFRVCFLAALIMAFTLPNSVYIQKP	Bacillus subtilis DB104 (SP-AmyQ fusion secretion)	7.01
MMIKQCVICLSLLVFGTRRKAHAEET	Bacillus subtilis DB104 (SP-AmyQ fusion secretion)	7.59
MKLKKRVSMFLVALTMCGGLFVEPAKAVKT	Bacillus subtilis DB104 (SP-AmyQ fusion secretion)	2.69
MKKLIQVMIMFTLLLTMAFSADAADS	Bacillus subtilis DB104 (SP-AmyQ fusion secretion)	4.44
MKKRITYSLLALLAVVAFAFTDSSKTKAAEA	Bacillus subtilis DB104 (SP-AmyQ fusion secretion)	4
MSMWMITIAMLILAGIALFVFISPLKSHKT	Bacillus subtilis DB104 (SP-AmyQ fusion secretion)	7.42
